tested on: Colon cancer cell lines; assay: NCI-60 SRB growth inhibition, subpanel; assay type: cell-based, human; conditions: full panel MG-MID / Colon Cancer subpanel MG-MID
measured quantity: SI (Selectivity Index)

compound	observed
CC(=O)Nc1ccc(CNc2cccc(C(=O)/C=C/c3cccnc3)c2)cc1 [Compound 5b]	1.43
COc1ccc(CNc2cccc(C(=O)/C=C/c3ccc(NC(C)=O)cc3)c2)cc1OC [Compound 5h]	1.38
O=C(/C=C/c1cccnc1)c1cccc(NCc2csc3ccccc23)c1 [Compound 5d]	1.21
O=C(/C=C/c1cccnc1)c1cccc(NCc2ccc(CO)cc2)c1 [Compound 5e]	1.55

----------
system: HCC-2998; assay: NCI-60 SRB growth inhibition, one-dose and five-dose; type: cell-based; conditions: Homo sapiens, HCC 2998, read-out: percent growth inhibition

compound	target under test	units text	inhibition at 10 µM
O=C(/C=C/c1cccnc1)c1cccc(NCc2csc3ccccc23)c1 [Compound 5d]	HCC-2998	%	188
CC(=O)Nc1ccc(/C=C/C(=O)c2cccc(NCc3csc4ccccc34)c2)cc1 [Compound 5i]	HCC-2998	%	56
O=C(/C=C/c1cccnc1)c1cccc(NCc2ccc(CO)cc2)c1 [Compound 5e]	HCC-2998	%	190
CC(=O)Nc1ccc(CNc2cccc(C(=O)/C=C/c3cccnc3)c2)cc1 [Compound 5b]	HCC-2998	%	195
CC(=O)Nc1ccc(/C=C/C(=O)c2cccc(NCc3ccc(NC(C)=O)cc3)c2)cc1 [Compound 5g]	HCC-2998	%	137
CC(=O)Nc1ccc(CNc2cccc(C(=O)/C=C/c3c[nH]cn3)c2)cc1 [Compound 5l]	HCC-2998	%	-2.31
Cc1ccc(CNc2cccc(C(=O)/C=C/c3cccnc3)c2)cc1 [Compound 5a]	HCC-2998	%	52.8
COc1ccc(CNc2cccc(C(=O)/C=C/c3ccc(NC(C)=O)cc3)c2)cc1OC [Compound 5h]	HCC-2998	%	176
COc1ccc(CNc2cccc(C(=O)/C=C/c3cccnc3)c2)cc1OC [Compound 5c]	HCC-2998	%	75.8

----------
tested on: NCI-H23; experiment: NCI-60 SRB growth inhibition, one-dose and five-dose; format: cell-based; conditions: Homo sapiens, NCI-H23, read-out: percent growth inhibition

compound	target under test	inhibition at 10 µM
Cc1ccc(CNc2cccc(C(=O)/C=C/c3cccnc3)c2)cc1 [Compound 5a]	NCI-H23	47.9%
O=C(/C=C/c1c[nH]cn1)c1cccc(NCc2ccc(CO)cc2)c1 [Compound 5m]	NCI-H23	18.6%
COc1ccc(CNc2cccc(C(=O)/C=C/c3ccc(NC(C)=O)cc3)c2)cc1OC [Compound 5h]	NCI-H23	105%
O=C(/C=C/c1c[nH]cn1)c1cccc(NCc2ccc3oc(=O)ccc3c2)c1 [Compound 5n]	NCI-H23	28.3%
CC(=O)Nc1ccc(/C=C/C(=O)c2cccc(NCc3ccc(NC(C)=O)cc3)c2)cc1 [Compound 5g]	NCI-H23	55.1%
CC(=O)Nc1ccc(CNc2cccc(C(=O)/C=C/c3cccnc3)c2)cc1 [Compound 5b]	NCI-H23	148%
CC(=O)Nc1ccc(/C=C/C(=O)c2cccc(NCc3ccc(CO)cc3)c2)cc1 [Compound 5j]	NCI-H23	95.9%
COc1ccc(CNc2cccc(C(=O)/C=C/c3cccnc3)c2)cc1OC [Compound 5c]	NCI-H23	73.6%
CC(=O)Nc1ccc(/C=C/C(=O)c2cccc(NCc3ccc(C)cc3)c2)cc1 [Compound 5f]	NCI-H23	26.2%

----------
tested on: UO-31; test: NCI-60 SRB growth inhibition, one-dose and five-dose; format: cell-based; conditions: Homo sapiens, UO-31
measured quantity: GI50 (µM)

compound	target under test	units text	observed
COc1ccc(CNc2cccc(C(=O)/C=C/c3cccnc3)c2)cc1OC [Compound 5c]	UO-31	µM	10.5
Cc1ccc(CNc2cccc(C(=O)/C=C/c3cccnc3)c2)cc1 [Compound 5a]	UO-31	µM	11.7
CC(=O)Nc1ccc(CNc2cccc(C(=O)/C=C/c3cccnc3)c2)cc1 [Compound 5b]	UO-31	µM	3.04
CC(=O)Nc1ccc(/C=C/C(=O)c2cccc(NCc3ccc(NC(C)=O)cc3)c2)cc1 [Compound 5g]	UO-31	µM	10.8
O=C(/C=C/c1cccnc1)c1cccc(NCc2ccc(CO)cc2)c1 [Compound 5e]	UO-31	µM	11.2
O=C(/C=C/c1cccnc1)c1cccc(NCc2csc3ccccc23)c1 [Compound 5d]	UO-31	µM	4.94

----------
Attribute: GI50
tested on: SK-OV-3; assay: NCI-60 SRB growth inhibition, one-dose and five-dose; format: cell-based; conditions: Homo sapiens, SK-OV-3
measured quantity: GI50 (µM)

input smiles	observed
CC(=O)Nc1ccc(/C=C/C(=O)c2cccc(NCc3csc4ccccc34)c2)cc1	16.7
CC(=O)Nc1ccc(/C=C/C(=O)c2cccc(NCc3ccc(C)cc3)c2)cc1	25.8
O=C(/C=C/c1cccnc1)c1cccc(NCc2ccc(CO)cc2)c1	15.8
O=C(/C=C/c1cccnc1)c1cccc(NCc2csc3ccccc23)c1	11.8
CC(=O)Nc1ccc(/C=C/C(=O)c2cccc(NCc3ccc(NC(C)=O)cc3)c2)cc1	16.3
CC(=O)Nc1ccc(/C=C/C(=O)c2cccc(NCc3ccc(CO)cc3)c2)cc1	16.3
CC(=O)Nc1ccc(CNc2cccc(C(=O)/C=C/c3cccnc3)c2)cc1	13.9
COc1ccc(CNc2cccc(C(=O)/C=C/c3ccc(NC(C)=O)cc3)c2)cc1OC	20
COc1ccc(CNc2cccc(C(=O)/C=C/c3cccnc3)c2)cc1OC	16.6
Cc1ccc(CNc2cccc(C(=O)/C=C/c3cccnc3)c2)cc1	16.1

----------
tested on: COLO 205; experiment: NCI-60 SRB growth inhibition, one-dose and five-dose; assay type: cell-based; conditions: Homo sapiens, COLO 205, read-out: percent growth inhibition
Quick rule: inhibition at 10 µM of at least 30% means fulfilled, below that means not fulfilled.

input smiles	class label
CC(=O)Nc1ccc(/C=C/C(=O)c2cccc(NCc3csc4ccccc34)c2)cc1	not fulfilled
CC(=O)Nc1ccc(/C=C/C(=O)c2cccc(NCc3ccc(C)cc3)c2)cc1	fulfilled
COc1ccc(CNc2cccc(C(=O)/C=C/c3ccc(NC(C)=O)cc3)c2)cc1OC	fulfilled
O=C(/C=C/c1c[nH]cn1)c1cccc(NCc2ccc(CO)cc2)c1	not fulfilled
O=C(/C=C/c1cccnc1)c1cccc(NCc2csc3ccccc23)c1	fulfilled
CC(=O)Nc1ccc(/C=C/C(=O)c2cccc(NCc3ccc4oc(=O)ccc4c3)c2)cc1	not fulfilled
COc1ccc(CNc2cccc(C(=O)/C=C/c3cccnc3)c2)cc1OC	fulfilled
Cc1ccc(CNc2cccc(C(=O)/C=C/c3cccnc3)c2)cc1	fulfilled

----------
system: OVCAR-4; test: NCI-60 SRB growth inhibition, one-dose and five-dose; type: cell-based; conditions: Homo sapiens, OVCAR-4
Flag rule - GI50 less than 9 µM flags Criterion met; the remaining entries get Criterion not met.

input smiles	target under test	class label
O=C(/C=C/c1cccnc1)c1cccc(NCc2csc3ccccc23)c1	OVCAR-4	Criterion met
Cc1ccc(CNc2cccc(C(=O)/C=C/c3cccnc3)c2)cc1	OVCAR-4	Criterion met
CC(=O)Nc1ccc(/C=C/C(=O)c2cccc(NCc3ccc(CO)cc3)c2)cc1	OVCAR-4	Criterion not met
CC(=O)Nc1ccc(/C=C/C(=O)c2cccc(NCc3csc4ccccc34)c2)cc1	OVCAR-4	Criterion not met
COc1ccc(CNc2cccc(C(=O)/C=C/c3ccc(NC(C)=O)cc3)c2)cc1OC	OVCAR-4	Criterion met
O=C(/C=C/c1cccnc1)c1cccc(NCc2ccc(CO)cc2)c1	OVCAR-4	Criterion not met
COc1ccc(CNc2cccc(C(=O)/C=C/c3cccnc3)c2)cc1OC	OVCAR-4	Criterion not met
CC(=O)Nc1ccc(/C=C/C(=O)c2cccc(NCc3ccc(NC(C)=O)cc3)c2)cc1	OVCAR-4	Criterion not met
CC(=O)Nc1ccc(/C=C/C(=O)c2cccc(NCc3ccc(C)cc3)c2)cc1	OVCAR-4	Criterion met
CC(=O)Nc1ccc(CNc2cccc(C(=O)/C=C/c3cccnc3)c2)cc1	OVCAR-4	Criterion met

----------
tested on: NCI-H226; assay: NCI-60 SRB growth inhibition, one-dose and five-dose; type: cell-based; details: Homo sapiens, NCI-H226
# label = TRUE if GI50 < 10 µM else FALSE

input smiles	class label
COc1ccc(CNc2cccc(C(=O)/C=C/c3ccc(NC(C)=O)cc3)c2)cc1OC	FALSE
CC(=O)Nc1ccc(CNc2cccc(C(=O)/C=C/c3cccnc3)c2)cc1	TRUE
O=C(/C=C/c1cccnc1)c1cccc(NCc2csc3ccccc23)c1	TRUE
O=C(/C=C/c1cccnc1)c1cccc(NCc2ccc(CO)cc2)c1	FALSE
CC(=O)Nc1ccc(/C=C/C(=O)c2cccc(NCc3ccc(NC(C)=O)cc3)c2)cc1	FALSE

----------
Items are presented alongside their recorded GI50.
tested on: SW-620; test: NCI-60 SRB growth inhibition, one-dose and five-dose; assay type: cell-based; conditions: Homo sapiens, SW-620
measured quantity: GI50 (µM)

input smiles	measured quantity	observed
O=C(/C=C/c1cccnc1)c1cccc(NCc2ccc(CO)cc2)c1	GI50	2.06
Cc1ccc(CNc2cccc(C(=O)/C=C/c3cccnc3)c2)cc1	GI50	2.03
COc1ccc(CNc2cccc(C(=O)/C=C/c3ccc(NC(C)=O)cc3)c2)cc1OC	GI50	2
